Tgt: NIH/3T3 cells overexpressing FGFR3 WT-TACC3 fusion protein (Homo sapiens)
Construct: fused on or other part: Q9Y6A5 (Transforming acidic coiled-coil-containing protein 3)
Sequence (P22607 whole entry, change not shown, the tested form may be a part): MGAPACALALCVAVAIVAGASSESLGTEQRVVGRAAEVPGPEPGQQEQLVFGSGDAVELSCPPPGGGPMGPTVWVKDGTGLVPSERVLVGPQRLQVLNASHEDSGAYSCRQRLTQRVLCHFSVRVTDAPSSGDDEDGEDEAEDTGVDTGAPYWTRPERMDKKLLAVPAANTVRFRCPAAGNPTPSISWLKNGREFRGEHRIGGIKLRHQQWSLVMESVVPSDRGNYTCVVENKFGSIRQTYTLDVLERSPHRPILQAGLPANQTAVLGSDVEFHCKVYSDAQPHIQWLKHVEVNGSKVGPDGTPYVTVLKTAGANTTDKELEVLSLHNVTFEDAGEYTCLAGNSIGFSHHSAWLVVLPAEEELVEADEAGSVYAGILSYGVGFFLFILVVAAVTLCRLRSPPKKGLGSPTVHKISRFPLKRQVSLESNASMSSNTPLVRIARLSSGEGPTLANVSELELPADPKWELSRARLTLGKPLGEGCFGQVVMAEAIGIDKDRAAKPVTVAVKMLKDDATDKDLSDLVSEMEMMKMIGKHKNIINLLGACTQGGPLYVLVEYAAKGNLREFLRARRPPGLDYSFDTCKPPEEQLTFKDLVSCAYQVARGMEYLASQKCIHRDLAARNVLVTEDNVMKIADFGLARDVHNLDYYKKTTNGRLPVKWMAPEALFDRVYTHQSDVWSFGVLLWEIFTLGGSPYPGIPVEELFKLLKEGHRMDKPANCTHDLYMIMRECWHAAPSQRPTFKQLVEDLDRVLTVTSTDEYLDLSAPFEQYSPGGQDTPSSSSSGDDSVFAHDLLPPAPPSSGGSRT
Run description: NIH/3T3 FGFR3 WT-TACC3 cell proliferation assay
Format: cell-based
Test context: 72-hr incubation, CellTiter Glo; read-out: NIH/3T3 FGFR3 WT-TACC3 CTG (IC50)
Threshold-based label: GI50 under 20 nM gives 1, GI50 not under 20 nM gives 0.

Q) Is GI50 strictly under 20 nM for the entry CCn1cc2[nH]c(=O)c(-c3nc4c(OC)cccc4[nH]3)c(N[C@@H](C)c3ncccn3)c2n1 ?
A) 0

Q) Is GI50 strictly under 20 nM for the entry CC[C@H](Nc1c(-c2nc3cnc(N(C)C)cc3[nH]2)c(=O)[nH]c2cn(C)nc12)c1ncccn1 ?
A) 0

Q) Is GI50 strictly under 20 nM for the entry COCC(Nc1c(-c2nc3cc(OC)c(OC)cc3[nH]2)c(=O)[nH]c2cn(C)nc12)c1ncccn1 (single isomer, unassigned) ?
A) 0

Q) Is GI50 strictly under 20 nM for the entry CCOc1cc2nc(-c3c(N[C@@H](C)c4ncccn4)c4nn(C)cc4[nH]c3=O)[nH]c2cc1OCC ?
A) 1

Q) Is GI50 strictly under 20 nM for the entry CC[C@H](Nc1c(-c2nc3ccc(OCCOC)cc3[nH]2)c(=O)[nH]c2cn(C)nc12)c1ncccn1 (single isomer, unassigned) ?
A) 1

Q) Is GI50 strictly under 20 nM for the entry COc1cc(OC)c2nc(-c3c(N[C@@H](C)c4ncccn4)c4nn(C)cc4[nH]c3=O)[nH]c2c1 ?
A) 1

Q) Is GI50 strictly under 20 nM for the entry CC(C)[C@H](Nc1c(-c2nc3cnccc3[nH]2)c(=O)[nH]c2cn(C)nc12)c1ncccn1 (single isomer, unassigned) ?
A) 0

Q) Is GI50 strictly under 20 nM for the entry COc1ccc2nc(-c3c(NC(C)c4ncccn4)c4nn(C)cc4[nH]c3=O)[nH]c2c1 (single isomer, unassigned) ?
A) 1

Q) Is GI50 strictly under 20 nM for the entry COc1cc2nc(-c3c(N[C@@H](C)c4ccccn4)c4nn(C)cc4[nH]c3=O)[nH]c2cc1OC ?
A) 1

Q) Is GI50 strictly under 20 nM for the entry CCOc1cc2[nH]c(-c3c(N[C@@H](C)c4ncccn4)c4nn(CC)cc4[nH]c3=O)nc2cc1OC ?
A) 1

Q) Is GI50 strictly under 20 nM for the entry COc1cc2[nH]c(-c3c(NC(c4ncccn4)C(C)C)c4nn(C)cc4[nH]c3=O)nc2cn1 (single isomer, unassigned) ?
A) 0

Q) Is GI50 strictly under 20 nM for the entry CCOc1cc2[nH]c(-c3c(N[C@@H](C)c4ncccn4)c4nn(C)cc4[nH]c3=O)nc2cc1OC ?
A) 1

Q) Is GI50 strictly under 20 nM for the entry CCC(Nc1c(-c2nc3ccc(OC)cc3[nH]2)c(=O)[nH]c2cn(C)nc12)c1ncccn1 (single isomer, unassigned) ?
A) 0

Q) Is GI50 strictly under 20 nM for the entry CCC(Nc1c(-c2nc3cc(OC)c(OC)cc3[nH]2)c(=O)[nH]c2cn(CC)nc12)c1ncccn1 (single isomer, unassigned) ?
A) 0

Q) Is GI50 strictly under 20 nM for the entry COc1cc(F)c2nc(-c3c(N[C@@H](C)c4ncccn4)c4nn(C)cc4[nH]c3=O)[nH]c2c1 ?
A) 1

Q) Is GI50 strictly under 20 nM for the entry CCn1cc2[nH]c(=O)c(-c3nc4c(F)c(OC)c(OC)cc4[nH]3)c(N[C@@H](C)c3ncccn3)c2n1 ?
A) 0

Q) Is GI50 strictly under 20 nM for the entry CCn1cc2[nH]c(=O)c(-c3nc4cc(OC)c(OC)cc4[nH]3)c(N[C@@H](C)c3ncccn3)c2n1 ?
A) 1
